# Experimental Protocol: Toxicity liver stage against HepG2, at 10uM
# Format: cell-based
# Parameters: test concentration 10 uM, cell line HepG2-A16-CD81EGFP
# Particulars: human, HepG2-A16-CD81EGFP cells; read-out: INHIBITION
Readout Label: cytotoxicity at 10 µM (%)
Numeric answer only, unit % assumed.

Fill in the blank: the reported cytotoxicity at 10 µM of CCc1ncc(CN2CCC3(CCCN(CC4CCC4)C3)C2)cn1 (centres undefined) is ____.
-7.07

Consider next the compound `COc1cccc(N2CCN(C(=O)COc3c(C)occc3=O)CC2)c1` in the same way.
-1.29

Also CN(C)c1ccc(CC(=O)N2CCOCC(O)C2)cc1 (centres undefined) , if possible.
13.3

And the next one, `CN(CCc1ccccc1)c1cnn(Cc2ccccn2)c(=O)c1` ?
-7.03

Field entry: `CC1(C)OCC2(CO1)CN(S(=O)(=O)c1ccc(Br)s1)C2`
-7.31

More entries:
// lookup cytotoxicity at 10 µM for `O=C(Nc1ccccn1)C1CCN(Cc2cc3c(cc2O)OCO3)CC1`
7.19

Query CCCOC1CCCN(c2ccnc(C(=O)NCc3ccco3)c2)C1 (centres undefined) next
5.58

Queued: `CCc1ccc(S(=O)(=O)Nc2cc(C(=O)O)c(F)cc2F)s1`
-7.44

Request: CC(O)CN1CCN(Cc2cccc(C(=O)N3CCCCC3)c2)CC1 (centres undefined)
-4.83
